System: TDF
Experiment: H1.0 immunofluorescence intensity relative to DMSO (% of DMSO); higher = stronger H1.0 induction, active = 120 or more
Settings: concentration: 10 µM; 24 h
PARAMETER_MEASURED: H1.0 immunofluorescence intensity
Numbers only.

These solved cases illustrate the format of a correct answer.
Cl.Cl.Fc1ccc(C(c2ccc(F)cc2)N2CCN(CC=Cc3ccccc3)CC2)cc1 [Flunarizine.2HCl] | 92.2
CCCn1c(=O)[nH]c(=O)c2[nH]cnc21 [3-n-Propylxanthine] | 92.3
COc1ccc(CNC(=O)c2sc3nc(C)cc(C)c3c2N)cc1 | 97.5
CC12CC3CC(C)(C1)CC(N)(C3)C2.Cl [Memantine hydrochloride] | 101
COc1c(O)cc2c(c1O)C1OC(CO)C(O)C(O)C1OC2=O (configuration not stated) [Bergenin] | 91.7

Field: H1.0 immunofluorescence intensity. Fill in for each record below.
1. Oc1cc2c(cc1O)CN(C(=S)NCCc1ccc(Cl)cc1)CCC2 [Capsazepine]
2. CSc1nc(-c2ccnc(NC(C)c3ccccc3)c2)c(-c2ccc(F)cc2)[nH]1 (configuration not stated) [p38 MAP Kinase Inhibitor III]

Out:
1: 91.8; 2: 95.2

====

System: HCC1569
Assay: H1.0 immunofluorescence intensity relative to DMSO (% of DMSO); higher = stronger H1.0 induction, active = 140 or more
Conditions: concentration: 10 µM; 24 h
// label = Yes if H1.0 immunofluorescence intensity is not less than 90, otherwise No

Answered examples (3):
O=C(O)c1cc(O)ccc1O | Yes
Cl.Cl.Cl.Cl.NCCCNCCCCNCCCN [Spermine tetrahydrochloride] | No
CCC(c1ccc(O)cc1)C(CC)c1ccc(O)cc1 (stereo unspecified) | Yes

In: Could you verify whether the entry CCCCCCCCC=CCCCCCCCCCC(=O)O [11(Z)-Eicosenoic acid] shows H1.0 immunofluorescence intensity of no less than 90?
Out: Yes

In: Hello, I need to know if COc1cc2ncnc(Nc3ccc(F)c(Cl)c3)c2cc1OCCCN1CCOCC1 has measured H1.0 immunofluorescence intensity not below 90. Thanks!
Out: Yes

In: Is reported H1.0 immunofluorescence intensity greater than or equal to 90 here: CC(=O)OCC1=C(C(=O)[O-])N2C(=O)C(NC(=O)CSc3ccncc3)C2SC1.[Na+] (stereo unspecified) [Cephapirin sodium]
Out: No

In: Would you say CC(N)(Cc1ccc(O)c(O)c1)C(=O)O (stereo unspecified) [Methyldopa] shows H1.0 immunofluorescence intensity at minimum 90?
Out: Yes

In: Can CN(c1ncccc1CNc1nc(Nc2ccc3c(c2)CC(=O)N3)ncc1C(F)(F)F)S(C)(=O)=O be said to have H1.0 immunofluorescence intensity at or above 90?
Out: Yes

In: Quick check: does COc1cc2nc(N3CCN(C(=O)C4=CC5C=CC4CC5)CC3)nc(N)c2cc1OC (stereo unspecified) have H1.0 immunofluorescence intensity greater than or equal to 90?
Out: Yes

In: H1.0 immunofluorescence intensity >= 90 for O=c1cc(-c2ccc(O)c(O)c2)oc2cc(O)cc(O)c12 ?
Out: Yes

====

Test system: HCC1569
Test: H1.0 immunofluorescence intensity relative to DMSO (% of DMSO); higher = stronger H1.0 induction, active = 140 or more
Settings: concentration: 10 µM; 24 h
Please go through the items and note down their H1.0 immunofluorescence intensity.
Answers are plain numbers.

CC1(C)CCC(C)(C)c2cc(C3(c4ccc(C(=O)O)cc4)OCCO3)ccc21 | 92.2

Record H1.0 immunofluorescence intensity for all entries; do not skip any.
1. O=C1CCN(c2ccccc2)N1 [Phenidone]
2. CN(Cc1ccc(C(C)(C)C)cc1)Cc1cccc2ccccc12 [Butenafine]

Out:
98.8
100

Could I get H1.0 immunofluorescence intensity for every one of these entries?
1. CCCCCC(O)CCCC(=O)[O-].[Na+] (centres undefined) [5-hydroxydecanoic acid sodium]
2. Cc1nc2ccccn2c(=O)c1CCN1CCC(C(=O)c2ccc(F)cc2)CC1 [Pirenperone]
3. CCCCCCCC/C=C\CCCCCCCC(N)=O [(9Z)-9-octadecenamide]
4. CCCn1c(=O)c2[nH]c(-c3ccc(OCC(=O)NCCN)cc3)nc2n(CCC)c1=O [Xanthine amine congener]

Out:
1: 114; 2: 103; 3: 98.7; 4: 110

====

Tested on: TDF
Assay: H1.0 immunofluorescence intensity relative to DMSO (% of DMSO); higher = stronger H1.0 induction, active = 120 or more
Conditions: concentration: 10 µM; 24 h
Would you kindly list H1.0 immunofluorescence intensity for each of these compounds?
Numbers only.

Use these answered entries as a reference point.
Cn1cnc2c1c(=O)[nH]c(=O)n2C [Theobromine] | 96.4
Nc1ncnc2c1ncn2C1CCCC1 [9-cyclopentyladenine] | 95.1
Cc1ccc(Cl)c(Nc2ccccc2C(=O)[O-])c1Cl.[Na+] [Meclofenamic acid sodium] | 90.8
O=C(C=Cc1ccc(O)cc1)CC(=O)C=Cc1ccc(O)cc1 [bis-demethoxycurcumin] | 92.7
COc1cc(Oc2ccnc3cc(OC)c(OC)cc23)ccc1NC(=O)NC(C)c1nccs1 (stereo not drawn) | 99.9
CC(=O)NCCOC(=O)[C@H](Oc1cccc(C(F)(F)F)c1)c1ccc(Cl)cc1 | 95.3

Parameter requested: H1.0 immunofluorescence intensity. Apply to each item below.
1. O=C1Cc2c([nH]c3ccc([N+](=O)[O-])cc23)-c2ccccc2N1 [Alsterpaullone]
2. CCOC(=O)c1cnc2c(cnn2CC)c1NN=C(C)C [Etazolate]
3. CCCCCC(O)CC(=O)CCc1ccc(O)c(OC)c1 (stereo not drawn) [Gingerol]

Out:
[92.9, 95.6, 92.9]

I'm hoping you can list H1.0 immunofluorescence intensity for every compound here, please.
1. CC(=O)NC(C(=O)O)C(C)(C)SN=O (stereo not drawn) [S-Nitroso-N-acetylpenicillamine]
2. CN1CCN(CCC=C2c3ccccc3Sc3ccc(S(=O)(=O)N(C)C)cc32)CC1.Cl [Thiothixene hydrochloride]
3. CCCc1nc2c(C)cc(-c3nc4ccccc4n3C)cc2n1Cc1ccc(-c2ccccc2C(=O)O)cc1 [Telmisartan]
4. COc1cc2oc(-c3ccc(O)c(O)c3)cc(=O)c2c(O)c1OC

Out:
1. 90.5
2. 98.5
3. 101
4. 91.1

====

Test system: TDF
Test: cell number relative to DMSO (% of DMSO); higher = more cells (less growth inhibition / toxicity)
Settings: concentration: 10 µM; 24 h
Kindly state cell number for each of the entries shown.
One number for each entry.

Reference set (8 entries):
O=C(O)COc1ccc(C(=O)c2cccs2)c(Cl)c1Cl [[2,3-dichloro-4-(2-thienylcarbonyl)phenoxy]acetic acid] | 99.8
CC(C)(C)c1nc2c3cc[nH]c(=O)c3c3cc(F)ccc3c2[nH]1 | 103
CCCNCC(O)COc1ccccc1C(=O)CCc1ccccc1 (centres undefined) | 101
CC(=O)Oc1ccc(C(c2ccc(OC(C)=O)cc2)c2ccccn2)cc1 | 102
O=c1[nH]c(=O)n(C2CC(O)C(CO)O2)cc1I (centres undefined) | 100
O=C(C=Cc1ccc(O)c(O)c1)OC1CC(O)(C(=O)O)CC(O)C1O (centres undefined) | 98.2
CCCCCCCCCCCCCC(=O)NC(C)C(O)c1ccccc1 (centres undefined) | 99.8
CCCCCCN(CCCCCC)C(=O)Cc1c(-c2ccc(F)cc2)[nH]c2ccccc12 [N,N-Dihexyl-2-(4-fluorophenyl)indole-3-acetamide] | 102

I'm hoping you can list cell number for every molecule here, please.
1. CCCCCC=CCC=CCCCCCCCC(=O)NCC(=O)O
2. Cl.O=C(c1ccc(OCCN2CCCCC2)cc1)c1c(-c2ccc(O)cc2)sc2cc(O)ccc12 [Raloxifene hydrochloride]
3. O=C([O-])c1cc2cc(Cc3cccnc3)ccc2o1.[Na+] [Furegrelate sodium]
4. CC(O)(P(=O)([O-])O)P(=O)([O-])O [Etidronate]
5. CCCCCCCCCCCCCCCCCCCCCCCC(=O)O
6. CCCCCC=CCC=CCC=CCCCCCCC(=O)O [8(Z), 11(Z), 14(Z)-Eicosatrienoic Acid]

Out:
101
100
102
106
104
101

I'm hoping you can list cell number for every molecule here, please.
1. C[N+](C)(CCCCCC[N+](C)(C)CCCN1C(=O)c2cccc3cccc(c23)C1=O)CCCN1C(=O)c2cccc3cccc(c23)C1=O.[Br-].[Br-]
2. CCCC1OC2CC3C4CCC5=CC(=O)C=CC5(C)C4C(O)CC3(C)C2(C(=O)CO)O1 (centres undefined) [Budesonide]
3. NC(=S)NN=Cc1ncccc1N
4. COc1ccc(C=Cc2cc(OC)cc(=O)o2)cc1
5. COc1cc2c(N3CCN(C(=O)Nc4ccc(OC(C)C)cc4)CC3)ncnc2cc1OCCCN1CCCCC1

Out:
101
94.1
41.7
80.2
100

====

Exercise: state measured cell number for each of the compounds provided.
Tested on: TDF
Test: cell number relative to DMSO (% of DMSO); higher = more cells (less growth inhibition / toxicity)
Conditions: concentration: 10 µM; 24 h
One number for each entry.

CN(C)CC(C)(C)CNc1nn2c(-c3ccccc3)nnc2cc1C1CCC1 | 103
CCN(NO)C1=CC(=O)C(=O)C=C1 | 97.7
CCCC(=O)NCCc1c2n(c3ccc(OC)cc13)Cc1ccccc1-2 | 99.3
CC(CN1CCC(Cc2ccccc2)CC1)C(O)c1ccc(O)cc1.Cl (stereo unspecified) [Ro 25-6981 hydrochloride] | 101
CC1CC2C3CCC4=CC(=O)C=CC4(C)C3(F)C(O)CC2(C)C1(O)C(=O)CO (stereo unspecified) [Dexamethasone] | 102

Okay, here is my list. What is cell number for each of these?
1. COc1ccccc1N1CCN(CCCCNC(=O)c2ccc3ccccc3c2)CC1 [N-{4-[4-(2-methoxyphenyl)-1-piperazinyl]butyl}-2-naphthamide]
2. CCOC(=O)C(CCc1ccccc1)NC(C)C(=O)N1Cc2ccccc2CC1C(=O)O (stereo unspecified)
3. COc1ccccc1N1CCN(CCCCNC(=O)c2ccc3ccccc3c2)CC1
4. CCn1ccnc1CC1COc2ccccc2O1.Cl (stereo unspecified) [Imiloxan hydrochloride]
5. O=C1C(Cl)=C(N2C(=O)CCC2=O)C(=O)c2ccccc21
6. CC(=O)SC1CC2=CC(=O)CCC2(C)C2CCC3(C)C(CCC34CCC(=O)O4)C12 (stereo unspecified)

Out:
98.1
101
111
105
110
105

Hey, can you go through the list below and give me cell number for every item?
1. CCCn1c(=O)c2c(ncn2C)n(CCC)c1=O
2. Cc1cc2c(s1)=Nc1ccccc1NC=2N1CCN(C)CC1
3. NC(=O)c1nnn(Cc2cc(Cl)c(C(=O)c3ccc(Cl)cc3)c(Cl)c2)c1N
4. NC(N)=NN=Cc1c(Cl)cccc1Cl
5. CCCCCCCCCCCCCCCCOCC(CO)OC(C)=O (stereo unspecified)

Out:
101
99.4
73.8
91.9
99.8
